- Test system: HT-29
- Method Notes: NCI tumour cell line growth inhibition, 48 h
The source made the active and inactive calls. Cut-off read from the data, not from the text of the source: active = GI50 up to about 1.1 µM and inactive = higher.
For each entry below, report its GI50 value.

Problem: Note GI50 for the compound shown: CCOC(=O)[C@H]1Nc2ccc(Cl)cc2[C@H]2c3ccccc3O[C@H]21
Solution: 99.3 µM (inactive)

Problem: Note GI50 for the compound shown: CCN1C[C@]2(C)CC[C@H](O)C34C1C(C[C@@H]32)[C@@]1(O)CC[C@H]2C[C@@H]4[C@@H]1[C@H]2O
Solution: > 100 µM (inactive)

Problem: Note GI50 for the compound shown: O=C(O)c1ccc(SSc2ccc(C(=O)O)cn2)nc1
Solution: > 100 µM (inactive)

Problem: Note GI50 for the compound shown: CN1C(=O)CN(NC(=O)C2=C(O)c3ccc(Br)cc3S(=O)(=O)N2)C1=S
Solution: > 100 µM (inactive)

Problem: Note GI50 for the compound shown: COc1ccc(NC(C)c2ccncc2)cc1 (stereo not given)
Solution: > 100 µM (inactive)

Problem: Note GI50 for the compound shown: CC(c1ccccc1)/[N+]([O-])=C/c1ccccc1 (stereo not given)
Solution: > 100 µM (inactive)

Problem: Note GI50 for the compound shown: CN(C)/C=N/c1c2ccccc2nc2ccccc12
Solution: 3.06 µM (inactive)

Problem: Note GI50 for the compound shown: C=CCOCn1cc(C)c(=O)[nH]c1=O
Solution: > 100 µM (inactive)

Problem: Note GI50 for the compound shown: CC(=O)OC(COc1ccc2c(c1)[n+]([O-])nc(N)[n+]2[O-])CN1CCCCC1 (stereo not given)
Solution: 11.1 µM (inactive)

Problem: Note GI50 for the compound shown: ClC(Cl)(Cl)C1=N[C@H]2[C@H](Br)[C@@H]3O[C@@H](c4ccccc4)[C@H](c4ccccc4)O[C@@H]3[C@H]2O1
Solution: 20.5 µM (inactive)

###

- Test system: HOP-62
- Method Notes: NCI tumour cell line growth inhibition, 48 h
Active and inactive are the calls of the source. No stated cut-off is given here; in the data, active = GI50 up to about 1.1 µM and inactive = higher.
For each entry below, report its GI50 value.

Problem: Enter recorded GI50 with HOP-62 for COc1cc(-c2nccc3cc(OC)c(OC)cc23)ccc1O here.
Solution: > 100 µM (inactive)

Problem: Enter recorded GI50 with HOP-62 for O=C1[C@H]2ON(c3ccccc3)C(c3ccccc3Cl)[C@H]2C(=O)N1c1ccc(Cc2ccc(N3C(=O)[C@@H]4ON(c5ccccc5)C(c5ccccc5Cl)[C@@H]4C3=O)cc2)cc1 (some centres not stated) here.
Solution: > 100 µM (inactive)

Problem: Enter recorded GI50 with HOP-62 for CC(Cl)(CCC(Cl)C(C)(C)Cl)C(=O)CBr (configuration not stated) here.
Solution: 18.2 µM (inactive)

Problem: Enter recorded GI50 with HOP-62 for C#CC(O)/C=C/C(O)CCCC(O)CC#CC(O)C#CCCCCC(O)/C=C/CCCCCC(=O)CCCCCCCCCCCCCC(O)C(O)C#CC(=O)O (configuration not stated) here.
Solution: > 25 µM (inactive)

Problem: Enter recorded GI50 with HOP-62 for C=C(C)[C@@H]1CC[C@]2(C(=O)OC3OC(COC4OC(CO)C(OC5OC(C)C(O)C(O)C5O)C(O)C4O)C(O)C(O)C3O)CC[C@]3(C)[C@H](CC[C@@H]4[C@@]5(C)CC[C@H](O)[C@@](C)(CO)[C@@H]5CC[C@]43C)[C@@H]12 (some centres not stated) here.
Solution: 3.61 µM (inactive)

Problem: Enter recorded GI50 with HOP-62 for OCC1CCCCCCCCCCC12SCCCS2 (configuration not stated) here.
Solution: > 100 µM (inactive)

Problem: Enter recorded GI50 with HOP-62 for CCN1C[C@]2(C)CC[C@H](O)C34C1C(C[C@@H]32)[C@@]1(O)CC[C@H]2C[C@@H]4[C@@H]1[C@H]2O here.
Solution: > 100 µM (inactive)

###

- System: NCI-H460
- Method Notes: NCI tumour cell line growth inhibition, 48 h
Activity calls are given as the source filed them. Rule as the data show it: active = GI50 up to about 1.1 µM and inactive = higher.
Value Type: GI50

Problem: Note GI50 for the compound shown: Cc1nc(N2N=C(c3ccc(Cl)cc3)CCC2=O)sc1[N+](=O)[O-]
Solution: > 100 µM (inactive)

Problem: Note GI50 for the compound shown: CNC(=O)N1CN(c2ccccc2)C2(CCN(CCCC3(c4ccc(F)cc4)OCCO3)CC2)C1=O
Solution: > 100 µM (inactive)

Problem: Note GI50 for the compound shown: Nc1nc2c3c(ncn3CC(O)CO2)n1 (stereo unspecified)
Solution: > 100 µM (inactive)

Problem: Note GI50 for the compound shown: NNC(N)Nc1ccccc1 (stereo unspecified)
Solution: > 100 µM (inactive)

Problem: Note GI50 for the compound shown: CCOC(=O)CCC(NC(=O)c1ccc(NCc2ccc3nc(-c4ccccc4)c(Cl)nc3c2)c2ccccc12)C(=O)OCC (stereo unspecified)
Solution: > 100 µM (inactive)

Problem: Note GI50 for the compound shown: COC(=O)c1cc2c3c(cc(NCCN)c2[nH]1)N(C(=O)c1cc2cc(OC)c(OC)c(OC)c2[nH]1)CC3CCl (stereo unspecified)
Solution: 0.0502 µM (active)

###

- Tested on: HCT-15
- Method Notes: NCI tumour cell line growth inhibition, 48 h
For each entry below, report its GI50 value.
Hi! Could you send only the number? It should be in µM, unit omitted.

Problem: Note GI50 for the compound shown: Cc1cccc(C(O)c2ccccn2)c1O (stereo not given)
Solution: 83.2

Problem: Note GI50 for the compound shown: N#Cc1ccc(-c2nc3cc(Cl)ccc3[nH]2)cc1
Solution: 39.9

Problem: Note GI50 for the compound shown: CN(C)CC1CCC/C(=C\c2ccc(Cl)cc2)C1=O (stereo not given)
Solution: 2.05

Problem: Note GI50 for the compound shown: Nc1ccn(C2OC(CO)C(O)C2(F)F)c(=O)n1 (stereo not given)
Solution: 0.735

Problem: Note GI50 for the compound shown: O=C(c1ccccc1)C(C(=O)c1ccccc1)c1nc2ccccc2sc1=O
Solution: 7.48

Problem: Note GI50 for the compound shown: c1ccc(CNC2CC(NCc3ccccn3)CC(NCc3ccccn3)C2)nc1 (stereo not given)
Solution: 4.72

Problem: Note GI50 for the compound shown: Cc1cc(O)cc2oc(=O)c3c(O)cc(O)cc3c12
Solution: 18.2

###

- System: COLO 205
- Method Notes: NCI tumour cell line growth inhibition, 48 h
Activity calls are given as the source filed them. Cut-off read from the data, not from the text of the source: active = GI50 up to about 1.1 µM and inactive = higher.
Hello, when you answer, please use one of the following outcomes: active, inactive

Problem: Which outcome was assigned to CC(C)(C)OC(=O)NC(Cc1ccc(OCc2ccccc2)cn1)C(=O)N1CCCC1 (centres undefined) in this test?
Solution: inactive

Problem: Which outcome was assigned to Cc1c(-c2nnc(-c3ccc(Cl)cc3)o2)c(=O)n(-c2ccccc2)n1C in this test?
Solution: inactive

Problem: Which outcome was assigned to CC12O[C@H](c3ccccc3)[C@H](c3ccccc3)N1C(=O)C1(C(=O)OCc3ccccc3)CC12 (some centres undefined) in this test?
Solution: inactive

Problem: Which outcome was assigned to O=C1c2c(c3c4ccccc4[nH]c3c3[nH]c4ccccc4c23)C(=O)N1Cc1ccccc1 in this test?
Solution: inactive

Problem: Which outcome was assigned to O=C(O)c1ccc(SSc2ccc(C(=O)O)cn2)nc1 in this test?
Solution: inactive

Problem: Which outcome was assigned to O=C(N/C=C1\C(=O)Oc2ccccc2C1=O)NC1CCCCC1 in this test?
Solution: inactive

Problem: Which outcome was assigned to NCCCNCc1c2ccccc2c(CNCCCN)c2ccccc12 in this test?
Solution: inactive

Problem: Which outcome was assigned to COc1cc(C2S/C(=C/c3ccccc3)C(=O)N2c2cccc(NC(C)=O)c2)cc(OC)c1OC (centres undefined) in this test?
Solution: inactive

Problem: Which outcome was assigned to COc1cc(O)c2c(c1)C(=O)c1cc3c(c(O)c1C2=O)C(OC1OC(C)C(O)C(O)C1OC)C(OC)C(C)(O)C3=O (centres undefined) in this test?
Solution: active

Problem: Which outcome was assigned to COc1ccc(CC2c3cc(OC)c(OC)cc3CC[N+]2(C)C)cc1OC (centres undefined) in this test?
Solution: inactive

Problem: Which outcome was assigned to c1ccc2c(c1)c1c3c(c4c(n32)=NCCN4)CCC1 in this test?
Solution: inactive

Problem: Which outcome was assigned to CC1(C)OC2CC3COC(=O)C3CC2O1 (centres undefined) in this test?
Solution: inactive

Problem: Which outcome was assigned to c1ccc2c(c1)NC1(N3CCCCC3)CCCCC21 (centres undefined) in this test?
Solution: inactive

Problem: Which outcome was assigned to N#CC1(C#N)N[C@@H](c2ccsc2)[C@H]2C(=O)N(c3ccccc3)C(=O)[C@H]21 in this test?
Solution: inactive

Problem: Which outcome was assigned to O=C(CCl)N1CCN(c2ccccn2)CC1 in this test?
Solution: inactive

Problem: Which outcome was assigned to Nc1ccn(C2OC(CO)C(O)C2(F)F)c(=O)n1 (centres undefined) in this test?
Solution: active

Problem: Which outcome was assigned to CCOc1ccc(-c2nc(-c3oc4ccccc4c(=O)c3OC(C)=O)cs2)cc1 in this test?
Solution: inactive

Problem: Which outcome was assigned to CC(C)(N)C(=O)N[C@@H]1C(=O)N2[C@@H]1SC(C)(C)[C@@H]2C(=O)O in this test?
Solution: inactive

Problem: Which outcome was assigned to O=[N+]([O-])c1ccc(/N=N/c2c(O)ccc3ccccc23)cc1 in this test?
Solution: inactive

Problem: Which outcome was assigned to c1cc2cc(Cc3ccc4[nH]ccc4c3)ccc2[nH]1 in this test?
Solution: inactive

Problem: Which outcome was assigned to N#C/C(=C\c1ccc(O)c(O)c1)c1c(C#N)c(N)nn1-c1ccccc1 in this test?
Solution: inactive

Problem: Which outcome was assigned to COc1cc(/C=C2\CCC(CN(C)C)C2=O)ccc1OC(=O)c1ccccc1 (centres undefined) in this test?
Solution: inactive

Problem: Which outcome was assigned to C[n+]1c2ccccc2n2c3ccccc3c(NCCCn3ccnc3)c(C#N)c21 in this test?
Solution: inactive

Problem: Which outcome was assigned to N#Cc1nnc2c3c(-c4ccc(Cl)cc4)c(C#N)c(O)nc3nn2c1N in this test?
Solution: inactive
